- Target system: cynomolgus monkey C17,20 lyase (Macaca fascicularis, UniProt Q2XVA1)
- Construct: microsomal preparations of the enzyme from testicular tissue; from tissue; host or cells: cynomolgus monkey testes, microsomes
- Sequence (Q2XVA1 1-508): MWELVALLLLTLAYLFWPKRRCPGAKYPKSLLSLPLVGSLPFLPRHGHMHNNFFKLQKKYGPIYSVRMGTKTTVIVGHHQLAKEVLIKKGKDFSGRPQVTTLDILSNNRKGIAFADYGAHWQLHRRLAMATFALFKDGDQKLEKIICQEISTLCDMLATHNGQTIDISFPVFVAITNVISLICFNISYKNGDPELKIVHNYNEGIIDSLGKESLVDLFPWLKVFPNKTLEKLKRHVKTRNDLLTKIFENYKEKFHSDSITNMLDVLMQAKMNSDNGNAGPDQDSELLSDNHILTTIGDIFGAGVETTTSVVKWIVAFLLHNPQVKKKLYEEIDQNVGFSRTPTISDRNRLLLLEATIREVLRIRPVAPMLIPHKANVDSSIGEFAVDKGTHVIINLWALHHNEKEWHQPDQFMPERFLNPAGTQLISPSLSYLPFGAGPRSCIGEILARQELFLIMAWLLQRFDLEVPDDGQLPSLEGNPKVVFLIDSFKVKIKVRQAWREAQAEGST
- Test: In vitro C17,20 lyase assay, testicular microsomes
- Assay type: biochemical
- Condition parameters: 1 µM, preincubation 0 min; mean of duplicates
- Protocol: In vitro C17,20 lyase assays: Compounds were tested for inhibition of cynomolgus monkey C17,20 lyase in vitro using microsomal preparations of the enzyme from testicular tissue. […] Radioactivity in the steroid peaks was measured using a Radiomatic® Model ES or Model A515 Flo-One® detector. The enzyme activity for each assay was calculated from the percent conversion of substrate to products, and the results were expressed as percent inhibition of control. […]
Readout kind: inhibition at 1 µM (%)
Could you give me the number in %? Just the number is fine.

Readout inhibition at 1 µM for C[C@]12CC[C@H]3[C@@H](CC=C4NC(=O)CC[C@@]43C)[C@@H]1CC[C@@H]2NC1CC1 , test system cynomolgus monkey C17,20 lyase (Macaca fascicularis, UniProt Q2XVA1), was 26

Readout inhibition at 1 µM for C[C@]12CC[C@H]3[C@@H](CC=C4NC(=O)CC[C@@]43C)[C@@H]1CC[C@@H]2OC1CC1 (stereo in doubt) , test system cynomolgus monkey C17,20 lyase (Macaca fascicularis, UniProt Q2XVA1), was 29

Readout inhibition at 1 µM for CN1C(=O)CC[C@@]2(C)C1=CC[C@H]1[C@@H]3CC[C@H](OC4CC4)[C@@]3(C)CC[C@@H]12 (stereo in doubt) , test system cynomolgus monkey C17,20 lyase (Macaca fascicularis, UniProt Q2XVA1), was 23.8

Readout inhibition at 1 µM for CC12CCC3C(CC[C@H]4NC(=O)CCC34C)C1CC[C@@H]2OC1CC1 (some centres unmarked) , test system cynomolgus monkey C17,20 lyase (Macaca fascicularis, UniProt Q2XVA1), was 33

Readout inhibition at 1 µM for CC12C=CC(=O)N[C@@H]1CCC1C2CCC2(C)C1CC[C@@H]2OC1CC1 (some centres unmarked) , test system cynomolgus monkey C17,20 lyase (Macaca fascicularis, UniProt Q2XVA1), was 40.7
